system: SF-295 CNS; experiment: NCI tumour cell line growth inhibition, 48 h; in the data active means GI50 below about 0.43 µM; inactive means the rest
Possible outcomes: active, inactive

INSERT INTO assay_data (molecule, label_class) VALUES
  ('O=C(Nc1cccc(-n2cc(-c3ccncc3)c(-c3cc(O)cc(Cl)c3)n2)c1)Nc1ccc(Cl)c(C(F)(F)F)c1', 'inactive'),
  ('O=C1C(N2CC2)=C(N2CC2)C(=O)C(N2CC2)=C1N1CC1', 'active'),
  ('COc1cccc(-n2nc(C)c3c(N/N=C(\C)c4ccncc4)ncnc32)c1', 'inactive'),
  ('Cc1cc(O)c(C2=NN(c3ccc(S(N)(=O)=O)cc3)C(c3ccccc3Cl)C2)cc1Cl (stereo not given)', 'inactive'),
  ('COc1cccc(C2=C(c3c(C)n(C)c4ccccc34)C(=O)NC2=O)c1', 'inactive');

----------
Quick reference for TGI among some compounds
system: XF 498 CNS; experiment: NCI tumour cell line growth inhibition, 48 h
Readout Kind: TGI (µM)

INSERT INTO assay_data (compound, target_or_test_system, readout_kind, sign_qualifier, value_measured) VALUES
  ('O=c1[nH]nc2ccccc2c1Cc1ccccc1', 'XF 498 CNS', 'TGI', '>', 100),
  ('CCC12CCCN(Cc3ccccc3)C1c1c(n(C)c3ccccc13)C(C(=O)OC)C2 (stereo not given)', 'XF 498 CNS', 'TGI', '=', 118),
  ('CC(C)CC(NC(=O)OC(C)(C)C)C(=O)Nc1ccc(Nc2nc(F)nc(-c3c4ccccc4c4n3CCS4)n2)cc1 (stereo not given)', 'XF 498 CNS', 'TGI', '=', 42.3),
  ('COC1OC(CBr)C(OC(=O)c2ccccc2)C(O)C1Br (stereo not given)', 'XF 498 CNS', 'TGI', '>', 10),
  ('Nc1nc(SCc2ccc([N+](=O)[O-])cc2)nc2c1ncn2C1OC(CO)C(O)C1O (stereo not given)', 'XF 498 CNS', 'TGI', '>', 100);

----------
# maps each entry to its log10 of TGI
tested on: OVCAR-3 ovarian; test: NCI tumour cell line growth inhibition, 48 h
Readout Kind: log10 of TGI (log10 of the value in µM)

INSERT INTO measurements (compound, target_or_test_system, value_measured) VALUES
  ('O=c1cccccc1[O-].O=c1cccccc1[O-].[O]=[U+2]=[O]', 'OVCAR-3 ovarian', 1.57),
  ('Cc1ccc(NC2=CC(=O)C(NO)c3ccccc32)cc1 (stereo not given)', 'OVCAR-3 ovarian', 0.75),
  ('CCCCCCCCCCCCCCCCOCC(CC(F)(F)P(=O)(OCC)OCC)OC(C)=O (stereo not given)', 'OVCAR-3 ovarian', 1.50),
  ('CNC(=O)c1cccc2cc(Oc3ccnc4cc(OCC5(N)CC5)c(OC)cc34)ccc12', 'OVCAR-3 ovarian', 1.37),
  ('CC(=O)OC[C@]12CC[C@@H](C(=O)CBr)[C@@H]1[C@H]1CC[C@@H]3[C@@]4(C)CCCNC(C)(C)[C@@H]4CC[C@@]3(C)[C@]1(C)CC2', 'OVCAR-3 ovarian', 0.59),
  ('COc1cc2c(cc1OCCCCN1C(=O)c3cccc4cccc(c34)C1=O)N=C[C@@H]1CCCN1C2=O', 'OVCAR-3 ovarian', 1.02),
  ('CN(C)CCN(C)c1ccc2c(=O)n(CCN(C)C)c(=O)n3c4ccccc4c(=O)c1c23', 'OVCAR-3 ovarian', 1.10),
  ('COc1cc2c(ccc3c4cc(OC)c(OC)cc4c[n+](C)c23)cc1O', 'OVCAR-3 ovarian', 1.73),
  ('CC1OC(n2c3ccccc3c3c4c(c5c6ccccc6[nH]c5c32)C(=O)N(CCN[C@@H]2CCC[C@H]2N)C4=O)CC(O)C1O (stereo not given in full)', 'OVCAR-3 ovarian', 0.83);

----------
tested on: SNB-78 CNS; test: NCI tumour cell line growth inhibition, 48 h
Readout Kind: TGI

INSERT INTO measurements (compound, target_or_test_system, readout_kind, value_measured) VALUES
  ('O=CN/C=C/c1cccc(O)c1', 'SNB-78 CNS', 'TGI', '> 100 µM'),
  ('COCC(O)Cn1ccnc1[N+](=O)[O-] (stereo not given)', 'SNB-78 CNS', 'TGI', '> 100 µM'),
  ('Nc1ccc2c(SCc3ccc([N+](=O)[O-])cc3)c3ccccc3nc2c1', 'SNB-78 CNS', 'TGI', '63.7 µM'),
  ('c1ccc(C(c2ccccc2)c2cccnc2)cc1', 'SNB-78 CNS', 'TGI', '> 100 µM'),
  ('O=c1c2ccccc2c(=O)n2n1CC=CC2', 'SNB-78 CNS', 'TGI', '> 100 µM');

----------
tested on: COLO 205 colon; test: NCI tumour cell line growth inhibition, 48 h
Recorded TGI, one value per entry.
Readout Kind: TGI

INSERT INTO measurements (compound, value_measured) VALUES
  ('c1cc2n(n1)CCN2', '> 10000 µM'),
  ('Cc1ccc([N+](=O)[O-])cc1NC(=O)/C(=N/NC(=S)NN)C1SC(=S)NC1=O (stereo not given)', '> 100 µM'),
  ('Cc1cn(C2CC(O)C(COC(=O)NCCC(F)(F)C(F)(F)C(F)(F)C(F)(F)F)O2)c(=O)[nH]c1=O (stereo not given)', '> 100 µM'),
  ('CC[C@]1(Cc2ccc(OC)c(OC)c2)C=[N+]([O-])O[C@H](OC2CCCC2(c2ccccc2)c2ccccc2)[C@@H]1OC(C)=O (stereo not given in full)', '12 µM'),
  ('N#C/C(c1nc2ccccc2[nH]1)=c1\s/c(=C/c2ccc(Cl)cc2)c(=O)n1-c1ccccc1', '> 100 µM'),
  ('CC(C)(C)OC(=O)N1CCC(C(=O)O)CC1', '> 100 µM'),
  ('C1COCCN1.C1COCCN1.NC1CCCCC1N.[Cl-].[Pt+2] (stereo not given)', '> 100 µM'),
  ('O=C(O)C1OC1(c1cccc(Cl)c1)c1ccccc1Cl (stereo not given)', '> 100 µM'),
  ('O=c1oc(Cl)c(Cl)c2ccccc12', '63.7 µM'),
  ('O=C1CSC(c2ccc([N+](=O)[O-])cc2)N1c1ccc(-n2c(-c3ccccc3)nc3ccccc3c2=O)cc1 (stereo not given)', '> 100 µM'),
  ('CCOC(=O)c1c2c(n(Cc3ccc(Cl)cc3Cl)c1C)-c1nc[nH]c1C(=O)C2=O', '32.1 µM'),
  ('COc1cc2c(cc1O)CC[C@@H]1[C@@H]2CC[C@]2(C)[C@@H](OCCN(C)C)CC[C@@H]12', '1.17 µM'),
  ('O=S(Nc1ccccc1)c1cccc(Cl)c1 (stereo not given)', '> 100 µM'),
  ('Nc1nc(SCc2ccc([N+](=O)[O-])cc2)nc2c1ncn2C1OC(CO)C(O)C1O (stereo not given)', '> 100 µM'),
  ('CC(=O)OCC1OC(c2nc3ccccc3s2)=CC(OC(C)=O)C1OC(C)=O (stereo not given)', '> 100 µM'),
  ('O=C(c1cccs1)N(C(=S)OC12CC3CC(CC(C3)C1)C2)c1ccccc1', '33.8 µM'),
  ('O=c1c2ccccc2c(=O)n2n1CC=CC2', '> 100 µM'),
  ('N#CC(=C1CCN(CCCC(=O)c2ccc(F)cc2)CC1)c1ccccc1', '> 100 µM'),
  ('Cc1nn(C(=O)Cc2ccccc2)c2c1C(c1ccc(O)cc1O)SC(N)=N2 (stereo not given)', '> 100 µM'),
  ('CCCCCCC(=O)O[C@H]1CC[C@H]2[C@@H]3CCC4C/C(=N/NC(=O)c5cccc6c(=O)c7ccccc7[nH]c56)C=C(C)[C@]4(C)[C@H]3CC[C@]12C (stereo not given in full)', '> 25 µM');

----------
system: M14 melanoma; assay: NCI tumour cell line growth inhibition, 48 h
Readout Kind: TGI

INSERT INTO measurements (compound, value_measured) VALUES
  ('CN1CCN(c2ncc3c(n2)sc2c(=O)n(-c4ccccc4)cnc23)CC1', '> 100 µM'),
  ('O=c1ccn([C@@H]2C[C@@H]2CO)c(=O)[nH]1', '> 100 µM'),
  ('O=[N+]([O-])c1ccc2c(c1)Cc1cc(N=Cc3ccc4c(c3)OCO4)ccc1-2', '> 100 µM'),
  ('CC1=CC(=O)c2ccccc2C1=O', '15.8 µM'),
  ('[N-]=[N+]=CC(=O)c1ccccc1C#CCCc1ccccc1', '> 100 µM'),
  ('CCCCCCC(=O)O[C@H]1CC[C@H]2[C@@H]3CCC4C/C(=N/NC(=O)c5cccc6c(=O)c7ccccc7[nH]c56)C=C(C)[C@]4(C)[C@H]3CC[C@]12C (stereo not given in full)', '> 25 µM'),
  ('Cc1ccccc1C(=O)N/N=C/c1ccc(Sc2nccn2C)c([N+](=O)[O-])c1', '> 100 µM'),
  ('COc1cc2c(cc1OC)C(=O)/C(=C/c1ccc(Cl)cc1)CC2', '> 10 µM'),
  ('c1ccc(CN2CCC3(CC2)SSC2(CCN(Cc4ccccc4)CC2)S3)cc1', '> 100 µM'),
  ('Cc1nn(-c2ccccc2)c(C)c1/C=N/N=C1\SCC(=O)N1c1ccccc1', '60.7 µM');
